Exercise: for every item that follows, state its recorded melting point.

COc1ccc(OC)c(C=CC(=O)n2cnc3c(N)ncnc32)c1	260 to 262 °C
Fc1c(Cl)c(F)c(Br)c(F)c1Cl	58 to 59.5 °C

# per-item lookup of melting point; items listed below
1. CCOC(=O)c1cc(C)nc(Cl)n1
2. NC(=O)C(Cc1ccccc1)NC(=O)OCc1ccccc1 (stereo not given)
3. [O-][N+]1=C(c2ccccn2)/C(=N\O)c2ccccc21
4. O=C1CCSCC1
5. CC(=O)c1ccc(Cc2ccccc2)cc1
6. OCc1ncoc1-c1ccccc1
7. O=[N+]([O-])c1cc2nccnc2cc1[N+](=O)[O-]

Key:
["56.5 to 59 °C", "162 to 164 °C", "215 to 217 °C", "62 to 65 °C", "38 to 40 °C", "95 to 97 °C", "188 to 191 °C"]

Exercise: Give the measured melting point for "O=S(=O)(c1ccc(N=C=S)cc1)N1CCCCC1"
Key: 126 to 127 °C

---

Exercise: for every item that follows, state its recorded melting point.

Cn1ccc2c(C=O)cccc21	27 to 29 °C

# per-item lookup of melting point; items listed below
1. C1CC2CCC1C2
2. Sc1cccc(Cl)c1Cl
3. Cc1cc(Sc2ccc(C(=O)O)cc2[N+](=O)[O-])c(C)cc1Cl
4. Cc1c(CC(=O)O)sc2ccc(Cl)cc12
5. O=C(O)C(Cc1ccccc1)Cc1ccccc1

Key:
87.5 °C
57 to 61 °C
243 to 248 °C
177 to 178 °C
90 °C

---

Exercise: for every item that follows, state its recorded melting point.

CN(C)NC(=O)CCC(=O)O	158 to 162 °C
O=[N+]([O-])c1ccccc1OCCBr	40 to 44 °C
O=[N+]([O-])c1cccnc1Oc1ccc(F)cc1	98 to 99 °C
COC(=O)c1c(C)cc(=O)oc1C	66 to 70 °C

Exercise: Give the measured melting point for "Cn1nc(-c2cccs2)cc1CO"
Key: 95 to 96 °C

---

Experimental endpoint: melting point

Examples with answers:
Cn1cnc(C=O)c1	68 to 69 °C
O=C(O)c1cc(F)ccc1O	179 to 182 °C
ClC1=C(Cl)C2(Cl)C3C(c4ccccc4C4C3C3(Cl)C(Cl)=C(Cl)C4(Cl)C3(Cl)Cl)C1(Cl)C2(Cl)Cl (stereo not given)	217 to 220 °C
Nc1ccccc1COc1ccccc1	78 °C
Brc1ccc(N2CCCC2)cc1	105 to 106 °C

# per-item lookup of melting point; items listed below
1. CN(CC(=O)O)C(=O)c1ccccc1
2. CC1(CC(=O)O)OCCc2sccc21 (stereo not given)
3. Cc1c(Br)c(Br)c(O)c(Br)c1Br
4. O=S(=O)(c1ccccc1)n1cc(CO)c2ccccc21
5. O=Cc1cnc2ccccc2n1

Key:
1: 101 to 105 °C; 2: 92.5 to 93.5 °C; 3: 195 to 200 °C; 4: 90 to 91 °C; 5: 108 to 111 °C

---

Exercise: for every item that follows, state its recorded melting point.

Examples with answers:
CCCCCCCCC(O)C(O)CCCCCCCC(=O)O (centres undefined)	90 °C
CC1(C)CC(=O)c2cc(-c3ccccc3)n(-c3ccc(F)cc3)c2C1	208 to 210 °C
CC(=O)N(c1ccccc1)c1nc(CCl)cs1	113 to 115 °C

# per-item lookup of melting point; items listed below
1. CC(=O)c1cc2c(cc1N)OCO2
2. N#Cc1cc(F)ccc1Br
3. OCc1ccc2[nH]cnc2c1
4. COc1ccc2c(c1)/C(=N/Nc1ccc([N+](=O)[O-])cc1[N+](=O)[O-])C2
5. COc1ccc2c(c1)CC2O (centres undefined)
6. NC(=S)Nc1cccnc1
7. O=C(N[C@@H](CSC(c1ccccc1)(c1ccccc1)c1ccccc1)C(=O)O)OCC1c2ccccc2-c2ccccc21
8. CC(=O)Nc1cccc(N)c1

Key:
1: 168 to 171 °C; 2: 90 °C; 3: 129 to 131 °C; 4: 220 to 222 °C; 5: 39 to 41 °C; 6: 159 to 160 °C; 7: 172 to 177 °C; 8: 84 to 88 °C
